# System: E. coli mL308 225
# TEST_NAME: In Vitro Anti-Bacterial Activity Assay (MIC), gram negative
# Assay type: cell-based
# PARTICULARS: Escherichia coli, ML308225, 18 h, read-out: Antibiotic Activity Gram −
The following compounds are listed with their measured MIC values.

COc1ccc(OC(=O)Nc2ccc3c(c2O)C(=O)C2=C(O)[C@]4(O)C(=O)C(C(N)=O)=C(O)[C@@H](N(C)C)[C@@H]4C[C@@H]2C3)cc1 [AS] ... > 4 µg/mL
CN(C)c1cc(CNC(=O)Oc2ccc(Br)cc2)c(O)c2c1C[C@H]1C[C@H]3[C@H](N(C)C)C(O)=C(C(N)=O)C(=O)[C@@]3(O)C(O)=C1C2=O [FH] ... > 4 µg/mL
CCOP(=O)(OCC)C(Nc1cc(N(C)C)c2c(c1O)C(=O)C1=C(O)[C@]3(O)C(=O)C(C(N)=O)=C(O)[C@@H](N(C)C)[C@@H]3C[C@@H]1C2)c1ccccc1 (some centres unmarked) [AA] ... > 4 µg/mL

Determine its reported MIC: Cc1ccc(OC(=O)Nc2ccc(O)c3c2C[C@H]2C[C@H]4[C@H](N(C)C)C(O)=C(C(N)=O)C(=O)[C@@]4(O)C(O)=C2C3=O)cc1 [AV]
< 4 µg/mL

Answer with the recorded MIC of CCOP(=O)(OCC)C(Nc1ccccc1)c1ccc(-c2cc(N(C)C)c3c(c2O)C(=O)C2=C(O)[C@]4(O)C(=O)C(C(N)=O)=C(O)C(N(C)C)[C@@H]4C[C@@H]2C3)cc1 (some centres unmarked) [DS] only.
> 4 µg/mL

Respond only with MIC recorded for CN(C)c1cc(CNC(=O)Oc2ccccc2)c(O)c2c1C[C@H]1C[C@H]3[C@H](N(C)C)C(O)=C(C(N)=O)C(=O)[C@@]3(O)C(O)=C1C2=O [EP]
> 4 µg/mL

Please report the measured MIC for CN(C)c1cc(NC(=O)Oc2ccc(Cl)cc2)c(O)c2c1C[C@H]1C[C@H]3[C@H](N(C)C)C(O)=C(C(N)=O)C(=O)[C@@]3(O)C(O)=C1C2=O [DP]
> 4 µg/mL

Return MIC (reported value) for this compound: CN(C)c1cc(NC(=O)Oc2ccccc2)c(O)c2c1C[C@H]1C[C@H]3[C@H](N(C)C)C(O)=C(C(N)=O)C(=O)[C@@]3(O)C(O)=C1C2=O [DT]
> 4 µg/mL

Where do these numbers come from? They come from patent US20150141381A1.
